assay_procedure: E. coli acrAB mutant growth effects, primary screen, E. coli filamentation inducers, strain DRC39, OD650, 48 h (AID 1179);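 note: screen aims at cell division blockers that make cells filament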
recorded_conditions: E. coli DRC39 delta-acrAB growth, higher = more signal, called active from +8 up or from −8 down
reported_endpoint: z-score

INSERT INTO assay_data (compound, reported_endpoint, meas_value) VALUES
  ('CC(C)[C@@H](CO)NC(=O)[C@H]1[C@@H](c2ccccc2)N(c2ccccc2)O[C@@H]1C', 'z-score', 0.506),
  ('C=C(COC)/C(=C/C[C@@H](OC(C)=O)c1ccc(OCCO)cc1)c1cc(C(=O)OC)ccc1OC', 'z-score', 0.0514),
  ('C=CCNC(=O)[C@@H]1[C@H]2C(=O)O[C@H](c3ccccc3)[C@H](c3ccccc3)N2[C@H](c2ccc(OCCO)cc2)[C@@]12C(=O)Nc1ccc(C#Cc3ccc(OC)cc3)cc12', 'z-score', -1.2),
  ('CCOC(=O)C1=CCC(c2ccccc2)N(S(=O)(=O)CC[Si](C)(C)C)C1 (configuration not stated)', 'z-score', 1.05),
  ('COc1ccc(CCNC(=O)[C@@]2(Sc3ccc(C)cc3)CC(=O)N(C3CCCCC3)[C@@H]2c2ccc(CO)cc2I)cc1', 'z-score', 0.238),
  ('COCCOC(=O)N1C(=O)[C@@]2(c3cc(C#CC4=CCCCC4)ccc31)[C@H](c1ccc(O)cc1)N1[C@H](c3ccccc3)[C@H](c3ccccc3)OC(=O)[C@H]1[C@@H]2C(N)=O', 'z-score', 0.552),
  ('CN1C(=O)C2C=CC(C(O)C3CC=CCC3)N(NC(=O)OC(C)(C)C)C2C1=O (configuration not stated)', 'z-score', -0.688);

* * *

assay_procedure: A549 cell viability effects, profiling panel, calcein-AM fluorescence, 48 h, basal (AID 1162); note: test concentration not given here
recorded_conditions: higher = more signal
reported_endpoint: z-score

INSERT INTO results (smiles_data, reported_endpoint, meas_value) VALUES
  ('CN(C)CCCNC(=O)[C@@]1(C)c2ccccc2C(=O)N(Cc2cc(F)cc(C(F)(F)F)c2)[C@H]1c1ccc(CO)cc1', 'z-score', 1.04),
  ('CC(=O)NCCCC[C@@H]1NC(=O)[C@@H]2C[C@H](C(=O)NCCCCCCNC(=O)CS)[C@H](c3cccc(OCCO)c3)N2C1=O', 'z-score', 0.0596),
  ('CCCN1C(=O)[C@]2(CCS(=O)(=O)c3ccccc3)N=C(c3ccc(OCCCO)cc3)O[C@@H]2c2ccccc21', 'z-score', 1.27),
  ('C#CCN(CC1=CCCCC1)[C@H](c1ccccc1Br)[C@@H](O)Cc1ccccc1', 'z-score', -0.101);

* * *

assay_system: Neurogenic locus notch homolog protein 3 (Homo sapiens) (UniProt Q9UM47)
Sequence (Q9UM47 whole entry, looked up): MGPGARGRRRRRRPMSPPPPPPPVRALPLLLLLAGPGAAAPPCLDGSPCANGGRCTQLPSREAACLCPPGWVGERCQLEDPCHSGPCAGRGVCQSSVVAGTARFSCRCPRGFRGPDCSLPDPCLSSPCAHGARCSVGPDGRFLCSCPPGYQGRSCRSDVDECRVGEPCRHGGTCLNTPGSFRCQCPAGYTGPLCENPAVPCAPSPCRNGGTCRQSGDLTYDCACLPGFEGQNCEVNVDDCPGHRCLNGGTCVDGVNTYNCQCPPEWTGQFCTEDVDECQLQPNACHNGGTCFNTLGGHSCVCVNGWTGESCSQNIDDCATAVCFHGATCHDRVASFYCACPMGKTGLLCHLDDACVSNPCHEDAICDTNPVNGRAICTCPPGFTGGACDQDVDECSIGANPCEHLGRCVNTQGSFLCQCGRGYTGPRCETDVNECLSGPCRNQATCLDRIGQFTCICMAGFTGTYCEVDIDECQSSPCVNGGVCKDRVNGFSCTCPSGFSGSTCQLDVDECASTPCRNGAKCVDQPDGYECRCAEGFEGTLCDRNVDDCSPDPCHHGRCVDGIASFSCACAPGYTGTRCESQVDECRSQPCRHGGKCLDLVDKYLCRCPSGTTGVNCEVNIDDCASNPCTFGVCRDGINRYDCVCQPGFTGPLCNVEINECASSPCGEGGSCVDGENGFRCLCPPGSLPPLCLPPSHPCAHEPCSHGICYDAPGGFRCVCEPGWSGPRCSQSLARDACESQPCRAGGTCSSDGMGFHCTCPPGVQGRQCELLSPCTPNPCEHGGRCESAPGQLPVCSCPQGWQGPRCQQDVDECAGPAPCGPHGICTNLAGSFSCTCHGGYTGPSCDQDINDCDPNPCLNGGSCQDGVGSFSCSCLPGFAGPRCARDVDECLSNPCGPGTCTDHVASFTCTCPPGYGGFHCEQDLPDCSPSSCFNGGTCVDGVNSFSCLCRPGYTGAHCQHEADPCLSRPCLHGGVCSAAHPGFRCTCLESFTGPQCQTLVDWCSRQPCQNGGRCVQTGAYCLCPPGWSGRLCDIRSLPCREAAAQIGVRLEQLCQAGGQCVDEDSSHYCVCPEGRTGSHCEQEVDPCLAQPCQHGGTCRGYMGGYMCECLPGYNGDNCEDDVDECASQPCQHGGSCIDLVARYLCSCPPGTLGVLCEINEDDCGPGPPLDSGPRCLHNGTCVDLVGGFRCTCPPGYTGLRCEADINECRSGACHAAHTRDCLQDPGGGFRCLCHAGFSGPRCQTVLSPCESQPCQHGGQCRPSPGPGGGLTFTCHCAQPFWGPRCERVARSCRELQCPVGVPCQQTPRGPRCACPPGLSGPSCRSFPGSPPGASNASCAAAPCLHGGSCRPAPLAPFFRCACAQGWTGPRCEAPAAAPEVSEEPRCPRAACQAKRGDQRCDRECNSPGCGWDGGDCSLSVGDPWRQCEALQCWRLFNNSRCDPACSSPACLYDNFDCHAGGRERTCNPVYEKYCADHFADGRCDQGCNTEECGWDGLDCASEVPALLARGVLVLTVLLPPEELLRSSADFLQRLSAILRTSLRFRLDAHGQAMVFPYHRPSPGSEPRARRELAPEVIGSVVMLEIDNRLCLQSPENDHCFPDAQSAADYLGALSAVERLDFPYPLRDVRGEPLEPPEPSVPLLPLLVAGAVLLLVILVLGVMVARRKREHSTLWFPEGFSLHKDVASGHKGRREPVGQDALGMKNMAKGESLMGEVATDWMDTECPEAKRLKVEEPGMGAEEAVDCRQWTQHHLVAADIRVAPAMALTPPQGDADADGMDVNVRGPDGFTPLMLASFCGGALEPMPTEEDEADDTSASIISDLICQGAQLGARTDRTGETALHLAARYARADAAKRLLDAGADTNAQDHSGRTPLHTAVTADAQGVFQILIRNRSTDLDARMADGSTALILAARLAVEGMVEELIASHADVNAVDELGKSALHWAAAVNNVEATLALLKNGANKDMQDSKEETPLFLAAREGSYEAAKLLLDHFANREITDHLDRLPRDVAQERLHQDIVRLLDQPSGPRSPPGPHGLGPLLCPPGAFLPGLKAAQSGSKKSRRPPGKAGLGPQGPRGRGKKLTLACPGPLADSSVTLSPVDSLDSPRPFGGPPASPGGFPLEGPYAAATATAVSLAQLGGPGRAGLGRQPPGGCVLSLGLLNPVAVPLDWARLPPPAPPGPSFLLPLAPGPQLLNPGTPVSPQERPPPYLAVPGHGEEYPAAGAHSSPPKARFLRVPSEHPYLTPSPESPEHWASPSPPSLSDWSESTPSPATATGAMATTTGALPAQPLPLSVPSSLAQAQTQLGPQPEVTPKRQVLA
assay_procedure: NOTCH3 binders on small-molecule microarray, primary screen, biochemical, 635/667 nm fluorescence (AID 1096)
recorded_conditions: NOTCH3 binding, 635 nm fluorescence, higher = more signal
reported_endpoint: composite z-score

INSERT INTO assay_data (smiles_data, reported_endpoint, meas_value) VALUES
  ('C=CCOC(=O)[C@H]1[C@@H]2C(=O)O[C@@H](c3ccccc3)[C@@H](c3ccccc3)N2[C@@H](c2ccc(OCCOC(=O)[C@@H]3C[C@@H]4C(=O)N5CCC[C@H]5C(=O)N4[C@@H]3c3cccc(OCCO)c3)cc2)[C@]12C(=O)Nc1ccccc12', 'composite z-score', 1.13),
  ('COc1cc2c(cc1OC)CN(C(=O)[C@@H]1[C@H]3C(=O)O[C@H](c4ccccc4)[C@H](c4ccccc4)N3[C@H](c3ccc(O)cc3)[C@@]13C(=O)Nc1ccc(C#CC4(O)CCCCCC4)cc13)CC2', 'composite z-score', 1.08);

Taken from PubChem BioAssay.
